This collection of values is drawn from patent US11332470B2.

# System Tested: CXCR4 (Jurkat cells expressing CXCR4) (Homo sapiens, UniProt P61073)
# Construct: Jurkat cells expressing CXCR4; endogenous in cells
# Sequence (P61073 whole entry): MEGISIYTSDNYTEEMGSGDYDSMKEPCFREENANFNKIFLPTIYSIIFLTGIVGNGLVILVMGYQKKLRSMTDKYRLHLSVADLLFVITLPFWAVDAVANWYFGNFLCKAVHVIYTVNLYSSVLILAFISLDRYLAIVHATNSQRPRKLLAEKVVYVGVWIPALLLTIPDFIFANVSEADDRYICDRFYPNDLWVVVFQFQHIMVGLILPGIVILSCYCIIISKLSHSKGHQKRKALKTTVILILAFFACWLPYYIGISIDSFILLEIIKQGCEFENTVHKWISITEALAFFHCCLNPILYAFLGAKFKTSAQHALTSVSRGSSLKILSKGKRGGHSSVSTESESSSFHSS
# Assay Notes: Chemokine (CXCL12-AF647) binding inhibition assay
# Condition Summary: CXCL12-AF647 25 ng/mL, read-out: IC50 CXCL-12 binding Jurkat
pIC50: −log10 of the molar value.
Measurement Label: pIC50

Known pIC50 results, listed for orientation:
[
  {
    "Compound": "CN1CCN(c2c(CN3CCCC3c3ccccn3)nc3ccccn23)CC1=O (centres unmarked)",
    "System Tested": "CXCR4 (Jurkat cells expressing CXCR4) (Homo sapiens, UniProt P61073)",
    "pIC50": "6.00 to 7.00"
  },
  {
    "Compound": "Cc1cccnc1C1CCCN1Cc1cn2c(N3CCN(C)C4(CC4)C3)cccc2n1 (centres unmarked)",
    "System Tested": "CXCR4 (Jurkat cells expressing CXCR4) (Homo sapiens, UniProt P61073)",
    "pIC50": "6.00 to 7.00"
  },
  {
    "Compound": "CN1CCN(c2c(CN3CCCC3c3ncccc3F)nc3ccccn23)CC1 (centres unmarked)",
    "System Tested": "CXCR4 (Jurkat cells expressing CXCR4) (Homo sapiens, UniProt P61073)",
    "pIC50": "7.00 to 11.00"
  },
  {
    "Compound": "Cc1cccnc1C1CCCN1Cc1nccn1CC1CCN(C2CC2)CC1 (centres unmarked)",
    "System Tested": "CXCR4 (Jurkat cells expressing CXCR4) (Homo sapiens, UniProt P61073)",
    "pIC50": "7.00 to 11.00"
  },
  {
    "Compound": "Cc1cccnc1C1CCCN1Cc1ccccn1 (centres unmarked)",
    "System Tested": "CXCR4 (Jurkat cells expressing CXCR4) (Homo sapiens, UniProt P61073)",
    "pIC50": "6.00 to 7.00"
  }
]

-- ask Give the value of pIC50 reported for the following: CN1CCC(n2ccnc2CN2CCCC2c2ccccn2)CC1 (centres unmarked)
-- reply 6.00 to 7.00

-- ask Give the value of pIC50 reported for the following: CN1CCN(c2c(CN3CCCC3c3ccccn3)nc3c(F)cccn23)CC1 (centres unmarked)
-- reply 7.00 to 11.00

-- ask Give the value of pIC50 reported for the following: CN1CCN(c2c(CN3CCCC3c3ncc[nH]3)nc3ccccn23)CC1 (centres unmarked)
-- reply 6.00 to 7.00

-- ask Give the value of pIC50 reported for the following: Cc1cccnc1C1CCCN1Cc1cn2c(N3CCN(C)CC3)cccc2n1 (centres unmarked)
-- reply 7.00 to 11.00

-- ask Give the value of pIC50 reported for the following: Cc1cccnc1C1CCCN1Cc1nccn1C(=O)N1CCN(C)CC1 (centres unmarked)
-- reply 6.00 to 7.00

-- ask Give the value of pIC50 reported for the following: Cc1cccnc1C1CCCN1Cc1ncccc1N1CCN(C)CC1 (centres unmarked)
-- reply 7.00 to 11.00

-- ask Give the value of pIC50 reported for the following: CN1CCN(c2c(CN3CCCC3c3ccccn3)nc3ccccn23)CC12CC2 (centres unmarked)
-- reply 7.00 to 11.00

-- ask Give the value of pIC50 reported for the following: Cc1cccnc1CN1CCCC1c1nc2ccccc2n1C1CCN(C)CC1 (centres unmarked)
-- reply 7.00 to 11.00

-- ask Give the value of pIC50 reported for the following: Cc1cccnc1C1CCCN1Cc1cn2c(C3OCC(N(C)C)CO3)cccc2n1 (centres unmarked)
-- reply 7.00 to 11.00

-- ask Give the value of pIC50 reported for the following: O=C1CN(c2c(CN3CCCC3c3ccccn3)nc3ccccn23)CCN1 (centres unmarked)
-- reply ≤ 6.00

-- ask Give the value of pIC50 reported for the following: Cc1cccnc1CN1CCCC1c1nccn1CC1CCN(C)CC1 (centres unmarked)
-- reply 7.00 to 11.00

-- ask Give the value of pIC50 reported for the following: c1ccc(C2CCCN2Cc2ncccc2-n2ccnc2)nc1 (centres unmarked)
-- reply 6.00 to 7.00

-- ask Give the value of pIC50 reported for the following: Cc1cccnc1C1CCCN1Cc1nccn1C1CCN(C)CC1 (centres unmarked)
-- reply 6.00 to 7.00
